Biological target: T1, human CCR7 (human, UniProt P32248 25-378)
T1 sequence: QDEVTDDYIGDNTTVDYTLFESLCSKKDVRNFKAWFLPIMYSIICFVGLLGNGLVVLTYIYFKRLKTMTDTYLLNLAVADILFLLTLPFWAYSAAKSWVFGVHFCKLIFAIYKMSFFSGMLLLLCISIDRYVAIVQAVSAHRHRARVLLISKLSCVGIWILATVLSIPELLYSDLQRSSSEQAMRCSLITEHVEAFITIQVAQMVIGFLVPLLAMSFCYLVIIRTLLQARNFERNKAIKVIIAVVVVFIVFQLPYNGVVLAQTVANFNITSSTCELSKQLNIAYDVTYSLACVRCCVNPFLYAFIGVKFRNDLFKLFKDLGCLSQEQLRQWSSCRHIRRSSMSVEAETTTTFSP
Assay: cell-based or functional assay
Reported ADCC activity; IC50 (nM); reporter assay, JVM2 targets and Jurkat-V158 effectors values follow for various binders
value type: ADCC activity; IC50 (nM); reporter assay, JVM2 targets and Jurkat-V158 effectors

{"columns": ["binder", "numeric result"],
 "data": [
  ["506E15 humanized CysMab (Fc Wild Type) (antibody, V domains shown, Human IgG1 kappa with CysMab cysteines; also called Humanized CysMab antibody 506E15) VH: EVQLVESGGGLVKPGGSLRLSCAASGFTFSSYAMSWIRQAPGKGLEWVATISSGGSFTYYPDSVKGRFTISRDNAKNSLYLQMNSLRAEDTAVYYCARRASTVVGTDFDVWGQGTTVTVSS VL: DIQMTQSPSSLSASVGDRVTLTCRASQDIGSSLNWLQQKPGKAIKRLIYATSSLDSGVPSRFSGSRSGTDYTLTISSLQPEDFVVYYCLQYASSPPTFGGGTKLEIK", 0.054],
  ["674J13 non-humanized CysMab (antibody, human IgG1, kappa, V domains shown, Chimeric human IgG1 kappa with CysMab cysteines and wild type Fc; also called Parental 674J13 hIgG1 CysMab; Non-humanized CysMab antibody 674J13) VH: DVQLQESGPDLVKPSQSLSLTCTVTGYSITSGYSWHWIRQFPGNKLEWMAHIHSSGSTNYNPSLKSRISIIRDTSKNLFFLQLNSVTTEDTATYYCARGGVQAFAYWGQGTLVTVSA VL: QIVLTQSPAIMSASPGEKVTMTCSASSSVIYMHWYQQKSGTSPKRWIYDTSKLASGVPARFSGSGSGTSYSLTISSMEAEDAATYYCQQWSSNPLTFGAGTTLELKR", 1.09],
  ["506E15 non-humanized CysMab (antibody, human IgG1, kappa, V domains shown, Chimeric human IgG1 kappa with CysMab cysteines and wild type Fc; also called Parental 506E15 hIgG1 CysMab; Non-humanized CysMab antibody 506E15) VH: EVMLVESGGGLVKPGGSLKLSCAASGFTFSSYAMSWIRQTPEKRLEWVATISSGGSFTYYPDSVKGRFTISRDNVKNTLYLQMSSLRSEDTAMYYCARRASTVVGTDFDVWGAGTTVTVSS VL: DIQMTQSPSSLSASLGERVSLTCRASQDIGSSLNWLQQEPDGTIKRLIYATSSLDSGVPKRFSGSRSGSDYSLTISSLESEDFVVYYCLQYASSPPTFGGGTKLEIKR", 0.131]
]}

Data provenance is patent US20230181756A1.
